This collection of values is drawn from ChEMBL document CHEMBL1681746.

Assay: Intrinsic clearance in rat liver microsomes assessed per mg of protein
Type: ADME, Microsome
test_readout: microsomal CLint (µL/min/mg)
Answers are plain numbers, in µL/min/mg.

Lookup: Can you share its microsomal CLint? I mean this molecule: "Cc1c(C(=O)N=C(N)N)ncn1Cc1ccc(Cl)cc1"
Found: 74.1

###

Experiment: Half life in po dosed in rat
Format: ADME, organism-based
Settings: in vivo
Would you mind telling me the reported half-life of each entry?
Answers are plain numbers, in h.

Cn1ccc(NC(=O)c2cnn(Cc3ccc(Cl)c(C(F)(F)F)c3)c2)n1 :: 1.3

Lookup: Can you share its half-life? I mean this compound: "Cc1c(C(=O)Nc2ccn(C)n2)ncn1Cc1cccc(C(F)(F)F)c1"
Found: 2.3

###

Assay: Apparent permeability of the compound by PAMPA
Format: ADME
test_readout: Papp (×10⁻⁶ cm/s)
One number for each entry, in ×10⁻⁶ cm/s.

Lookup: Can you share its Papp? I mean this compound: "Cc1c(C(=O)N=C(N)N)ncn1Cc1ccc(Cl)cc1"
Found: 2.6

###

Target: CYP1A2 (Homo sapiens, UniProt P05177)
Sequence (P05177 whole entry): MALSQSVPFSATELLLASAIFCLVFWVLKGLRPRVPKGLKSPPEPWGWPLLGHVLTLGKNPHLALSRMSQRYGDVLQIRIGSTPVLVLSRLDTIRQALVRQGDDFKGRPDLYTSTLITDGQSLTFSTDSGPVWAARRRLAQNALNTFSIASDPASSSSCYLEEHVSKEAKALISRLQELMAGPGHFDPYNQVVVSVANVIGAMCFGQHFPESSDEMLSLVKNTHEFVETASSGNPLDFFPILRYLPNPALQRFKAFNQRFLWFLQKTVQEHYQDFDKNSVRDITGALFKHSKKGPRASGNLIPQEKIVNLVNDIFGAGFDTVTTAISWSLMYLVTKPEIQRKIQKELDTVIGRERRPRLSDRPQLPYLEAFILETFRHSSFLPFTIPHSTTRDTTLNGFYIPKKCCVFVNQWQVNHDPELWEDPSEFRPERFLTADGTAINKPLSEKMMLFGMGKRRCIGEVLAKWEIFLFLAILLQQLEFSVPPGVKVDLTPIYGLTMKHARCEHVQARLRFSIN
Test: Inhibition of CYP1A2 at 3 uM
Type: ADME
test_readout: inhibition at 3 µM

Lookup: Can you share its inhibition at 3 µM? I mean this molecule: "Cc1c(C(=O)N=C(N)N)ncn1Cc1ccc(Cl)cc1"
Found: < 1%

###

Assay: Intrinsic clearance in human liver microsomes assessed per mg of protein
Type: ADME, Microsome
Would you mind telling me the reported microsomal CLint of each entry?
One number for each entry, in µL/min/mg.

Cn1ccc(NC(=O)c2cnn(Cc3ccc(Cl)c(C(F)(F)F)c3)c2)n1 :: 25.9

Lookup: Can you share its microsomal CLint? I mean this compound: "Cc1c(C(=O)N=C(N)N)ncn1Cc1ccc(Cl)cc1"
Found: 15.5

###

Would you mind telling me the reported pIC50 of each entry?
Molecular target: UniProtKB P07308
Sequence (P07308 whole entry): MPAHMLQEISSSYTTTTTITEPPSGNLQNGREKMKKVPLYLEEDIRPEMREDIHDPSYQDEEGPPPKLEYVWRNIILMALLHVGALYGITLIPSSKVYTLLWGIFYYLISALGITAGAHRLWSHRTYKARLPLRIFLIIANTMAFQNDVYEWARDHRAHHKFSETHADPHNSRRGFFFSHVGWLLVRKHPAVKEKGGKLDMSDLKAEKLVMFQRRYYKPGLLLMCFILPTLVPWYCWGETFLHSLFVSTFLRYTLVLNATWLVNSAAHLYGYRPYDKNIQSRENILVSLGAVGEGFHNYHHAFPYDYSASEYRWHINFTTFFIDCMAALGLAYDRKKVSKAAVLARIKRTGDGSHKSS
Assay: Inhibition of rat liver SCD1 using [3H]-stearoylCoA
Answers are plain numbers, as −log10 of the molar value.

// solved cases for pIC50 follow
Cn1ccc(NC(=O)c2cn(Cc3cccc(Cl)c3)cn2)n1 :: 7.24
Cn1ncc(NC(=O)c2cn(Cc3cccc(C(F)(F)F)c3)cn2)n1 :: 7.60
Cn1ccc(NC(=O)c2cn(Cc3cccc(OC(F)(F)F)c3)cn2)n1 :: 7.49

Items follow; give pIC50 for each.
1. Cn1ccc(NC(=O)c2ncn(Cc3cccc(C(F)(F)F)c3)n2)n1
2. Cn1ccc(NC(=O)c2cn(CCc3ccccc3Cl)cn2)n1
3. Cc1c(C(=O)N=C(N)N)ncn1Cc1ccc(Cl)cc1
4. CC(=O)NCCNC(=O)c1cn(Cc2ccc(F)c(C(F)(F)F)c2)cn1

Found:
[6.95, 6.90, 7.03, 5.56]
